Data origin, for the record: ChEMBL document CHEMBL1157576

pKi values recorded for Amine oxidase [flavin-containing] A (Rattus norvegicus, UniProt P21396)
# pKi is unitless: minus log10 of the molar concentration; print number only

Answered examples (3):
> print(dat)
                                   compound  metric  result.value
1  COc1ccccc1NC(=S)N1N=C(c2ccc(O)cc2)CC1c1ccco1 (centres undefined)     pKi          6.12
2  Oc1ccc(C2=NN(C(=S)Nc3ccccc3)C(c3cccs3)C2)cc1 (centres undefined)     pKi          6.32
3  Cc1cccc(NC(=S)N2N=C(c3ccc(O)cc3)CC2c2cccs2)c1 (centres undefined)     pKi          6.82

Consider the record given below.
Quick check: pKi of Cc1ccc(NC(=S)N2N=C(c3ccc(O)cc3)CC2c2cccs2)cc1 (centres undefined) ?
6.46
